TARGET_UNDER_TEST: RecG (Thermotoga maritima, UniProt Q9WY48)
Sequence (Q9WY48 1-780): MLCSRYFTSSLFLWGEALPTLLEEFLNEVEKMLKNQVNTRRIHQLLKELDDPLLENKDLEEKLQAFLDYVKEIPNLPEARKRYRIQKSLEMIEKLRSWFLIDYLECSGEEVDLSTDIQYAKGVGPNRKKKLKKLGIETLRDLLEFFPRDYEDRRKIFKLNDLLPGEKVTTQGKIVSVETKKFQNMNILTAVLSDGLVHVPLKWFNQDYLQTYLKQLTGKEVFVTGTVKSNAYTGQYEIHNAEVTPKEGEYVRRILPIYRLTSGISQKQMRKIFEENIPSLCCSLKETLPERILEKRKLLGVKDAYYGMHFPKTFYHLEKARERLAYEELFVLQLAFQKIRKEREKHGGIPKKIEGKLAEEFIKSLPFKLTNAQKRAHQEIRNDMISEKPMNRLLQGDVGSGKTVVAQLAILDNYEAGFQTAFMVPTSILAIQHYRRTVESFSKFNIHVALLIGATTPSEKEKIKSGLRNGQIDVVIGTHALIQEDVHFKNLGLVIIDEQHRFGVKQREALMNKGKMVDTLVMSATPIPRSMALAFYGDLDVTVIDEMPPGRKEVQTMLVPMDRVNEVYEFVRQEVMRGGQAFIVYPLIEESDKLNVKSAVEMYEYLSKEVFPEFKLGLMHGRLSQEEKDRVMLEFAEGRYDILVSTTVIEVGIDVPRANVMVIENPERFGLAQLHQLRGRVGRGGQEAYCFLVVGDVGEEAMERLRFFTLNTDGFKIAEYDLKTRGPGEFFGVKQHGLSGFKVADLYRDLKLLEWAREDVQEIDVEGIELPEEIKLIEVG
pKi: −log10 of the molar value.
Kind request: treat 6 as inclusive, so pKi at 6 or higher is 1 (yes), anything lower is 0 (no).

{"STRUCTURE_SMILES": "CNc1ccccc1C(=O)O[C@H]1[C@@H](O)[C@H](n2cnc3c(N)ncnc32)O[C@@H]1COP(=O)(O)OP(=O)(O)O", "LABEL": "1 (yes)"}
{"STRUCTURE_SMILES": "CNc1ccccc1C(=O)O[C@H]1C[C@H](n2cnc3c(N)ncnc32)O[C@@H]1COP(=O)(O)OP(=O)(O)O", "LABEL": "1 (yes)"}
{"STRUCTURE_SMILES": "Nc1ncnc2c1ncn2[C@@H]1O[C@H](COP(=O)(O)OP(=O)(O)NP(=O)(O)O)[C@@H](O)[C@H]1O", "LABEL": "0 (no)"}
{"STRUCTURE_SMILES": "Nc1ncnc2c1ncn2[C@@H]1O[C@H](COP(=O)(O)OP(=O)(O)O)[C@@H](O)[C@H]1O", "LABEL": "0 (no)"}

###

TARGET_UNDER_TEST: RecG⋅DNA(A40:B40) (Thermotoga maritima, UniProt Q9WY48)
Construct: made in house
PROTOCOL: Stopped-flow mant fluorescence: mant nucleotide binding to RecG⋅DNA, pseudo-first-order
PROTOCOL_CONDITIONS: mantADP with RecG⋅DNA, used as model assumption
pKd: −log10 of the molar value.
PROPERTY_MEASURED: pKd

{"MOLECULE": "CNc1ccccc1C(=O)O[C@H]1[C@@H](O)[C@H](n2cnc3c(N)ncnc32)O[C@@H]1COP(=O)(O)OP(=O)(O)O [mantADP]", "TARGET_UNDER_TEST": "RecG⋅DNA(A40:B40) (Thermotoga maritima, UniProt Q9WY48)", "OBS_VALUE": "> 7.30"}
